assayedTarget: Lck (Homo sapiens, UniProt P06239)
Construct: Kinases are expressed as either kinase domains or full length constructs; made in house
Sequence (P06239 whole entry, species assumed, the tested form may be a part): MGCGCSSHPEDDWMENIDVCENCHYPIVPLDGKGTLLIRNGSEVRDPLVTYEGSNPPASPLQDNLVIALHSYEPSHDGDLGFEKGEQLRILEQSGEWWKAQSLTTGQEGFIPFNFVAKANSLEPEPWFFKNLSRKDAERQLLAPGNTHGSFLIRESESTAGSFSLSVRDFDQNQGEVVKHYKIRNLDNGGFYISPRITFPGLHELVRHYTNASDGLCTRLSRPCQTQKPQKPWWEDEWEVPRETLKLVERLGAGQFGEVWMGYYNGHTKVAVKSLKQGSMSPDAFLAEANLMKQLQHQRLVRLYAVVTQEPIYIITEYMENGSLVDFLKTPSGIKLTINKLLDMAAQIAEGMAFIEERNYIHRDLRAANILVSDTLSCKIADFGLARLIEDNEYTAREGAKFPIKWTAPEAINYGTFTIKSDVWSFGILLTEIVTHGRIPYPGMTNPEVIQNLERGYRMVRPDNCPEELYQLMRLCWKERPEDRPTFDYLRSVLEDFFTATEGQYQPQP
assayText: Kinase inhibition assay (33P transfer), Lck
Type: biochemical
settings: Table 3; read-out: Lck-1
measuredParameter: IC50

Which IC50 value belongs to COc1cc(Nc2ncnc(Nc3ccc(N(C)C)cc3)n2)cc(OC)c1OC [Compound 27] ?
1.01 to 6.05 µM

Item under review: COc1cc(Nc2ncnc(Nc3ccc(Br)cc3F)n2)cc(OC)c1OC [Compound 41] . Reported IC50?
5.33 to 7.77 µM

Query: IC50; subject: OCc1ccc(Nc2ncnc(-c3ccccc3)n2)cc1 [Compound 165]
> 16.2 µM

// returns reported IC50 for input Nc1ncnc(Nc2ccc3c(c2)OCO3)n1 [Compound 1025]
> 19.5 µM

What value of measured IC50 is listed for COc1ccc(Nc2ncnc(N(CC(=O)OC(C)(C)C)c3ccc4c(c3)OCO4)n2)cc1OC [Compound 310] ?
0.831 to 4.98 µM

Would you mind telling me what IC50 value was observed for FC(F)(F)c1ccc(Cl)c(Nc2ncnc(-n3cccc3)n2)c1 [Compound 283] ?
> 13.2 µM

Record request: IC50 value, item COc1cc(Nc2ncnc(-n3c(=O)sc4ccccc43)n2)cc(OC)c1OC [Compound 424]
> 10.9 µM

Can you look up the measured IC50 of COc1cc(Nc2ncnc(N(C/C=C/c3ccccc3)c3ccc(Cl)cc3)n2)cc(OC)c1OC [Compound 56] for me?
4.76 to 6.94 µM

Would you mind telling me what IC50 value was observed for COc1cc(Nc2ncnc(Nc3ccc(C)c(O)c3)n2)cc(OC)c1OC [Compound 83] ?
< 1.04 µM

* * *

For each entry below, report its pIC50 value.
assayedTarget: Tek (Homo sapiens, UniProt Q02763)
Sequence (Q02763 23-1124, species assumed): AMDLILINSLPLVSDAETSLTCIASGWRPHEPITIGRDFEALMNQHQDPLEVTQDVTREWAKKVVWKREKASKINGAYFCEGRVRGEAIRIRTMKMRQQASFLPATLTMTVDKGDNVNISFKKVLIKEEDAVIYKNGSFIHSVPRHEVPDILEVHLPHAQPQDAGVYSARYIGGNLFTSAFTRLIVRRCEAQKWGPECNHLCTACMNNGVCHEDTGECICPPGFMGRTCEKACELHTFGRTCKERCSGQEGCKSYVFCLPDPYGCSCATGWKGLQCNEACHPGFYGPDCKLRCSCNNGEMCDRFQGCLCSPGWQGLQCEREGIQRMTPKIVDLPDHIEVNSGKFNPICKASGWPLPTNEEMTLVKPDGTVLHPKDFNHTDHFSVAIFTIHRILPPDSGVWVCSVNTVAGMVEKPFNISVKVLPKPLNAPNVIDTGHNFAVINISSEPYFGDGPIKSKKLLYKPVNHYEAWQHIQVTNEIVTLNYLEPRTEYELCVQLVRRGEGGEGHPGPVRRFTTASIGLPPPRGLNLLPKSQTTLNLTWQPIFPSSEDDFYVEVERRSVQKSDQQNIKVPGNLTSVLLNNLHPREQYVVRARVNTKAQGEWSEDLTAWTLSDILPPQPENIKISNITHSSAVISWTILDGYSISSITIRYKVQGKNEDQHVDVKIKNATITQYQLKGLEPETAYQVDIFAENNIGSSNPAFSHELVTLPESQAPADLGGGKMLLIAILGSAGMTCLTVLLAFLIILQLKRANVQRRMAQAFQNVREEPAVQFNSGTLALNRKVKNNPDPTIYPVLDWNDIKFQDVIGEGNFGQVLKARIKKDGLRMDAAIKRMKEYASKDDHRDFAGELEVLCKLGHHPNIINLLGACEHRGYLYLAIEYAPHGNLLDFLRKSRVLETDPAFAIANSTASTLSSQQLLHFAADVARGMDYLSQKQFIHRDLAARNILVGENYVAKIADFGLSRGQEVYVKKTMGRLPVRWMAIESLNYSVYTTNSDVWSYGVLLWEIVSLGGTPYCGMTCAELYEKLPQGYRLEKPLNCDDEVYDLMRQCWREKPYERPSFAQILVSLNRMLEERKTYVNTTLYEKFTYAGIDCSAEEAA
pIC50: −log10 of the molar value.

I'd like to know its pIC50. The compound in question is COc1cc(Nc2ncnc(Nc3ccc(C)c(N)c3)n2)cc(OC)c1OC
< 4.93

Return reported pIC50; argument: COc1cc(Nc2ncnc(-n3c(N[C@@H](CO)c4ccccc4)nc4ccccc43)n2)cc(OC)c1OC
5.17 to 5.33

// query pIC50 value for entry COc1ccccc1Nc1nc2ccccc2n1-c1ncnc(Nc2cc(OC)c(OC)c(OC)c2)n1
5.05 to 5.15

Need pIC50 of COc1cc(Nc2ncnc(-n3c(Nc4cc(OC)c(OC)c(OC)c4)nc4ccccc43)n2)cc(OC)c1OC , thanks.
< 5.09

Field request: pIC50 | item: COc1ccc(Oc2ncnc(Nc3cc(OC)c(OC)c(OC)c3)n2)cc1
< 4.93

Return reported pIC50; argument: C=CCN(c1ccc(Cl)cc1)c1ncnc(Nc2cc(OC)c(OC)c(OC)c2)n1
4.98 to 5.09

Look up pIC50: COc1cc(Nc2ncnc(N3CCN(C)CC3)n2)cc(OC)c1OC
< 4.90

Query: pIC50; subject: COc1cc(Nc2ncnc(N(CC(=O)OC(C)(C)C)c3ccc4c(c3)OCO4)n2)cc(OC)c1OC
< 5.06

* * *

Kindly state pIC50 for each of the entries shown.
assayedTarget: Zap-70 (Homo sapiens, UniProt P43403)
Construct: Kinases are expressed as either kinase domains or full length constructs; made in house
Sequence (P43403 whole entry, species assumed, the tested form may be a part): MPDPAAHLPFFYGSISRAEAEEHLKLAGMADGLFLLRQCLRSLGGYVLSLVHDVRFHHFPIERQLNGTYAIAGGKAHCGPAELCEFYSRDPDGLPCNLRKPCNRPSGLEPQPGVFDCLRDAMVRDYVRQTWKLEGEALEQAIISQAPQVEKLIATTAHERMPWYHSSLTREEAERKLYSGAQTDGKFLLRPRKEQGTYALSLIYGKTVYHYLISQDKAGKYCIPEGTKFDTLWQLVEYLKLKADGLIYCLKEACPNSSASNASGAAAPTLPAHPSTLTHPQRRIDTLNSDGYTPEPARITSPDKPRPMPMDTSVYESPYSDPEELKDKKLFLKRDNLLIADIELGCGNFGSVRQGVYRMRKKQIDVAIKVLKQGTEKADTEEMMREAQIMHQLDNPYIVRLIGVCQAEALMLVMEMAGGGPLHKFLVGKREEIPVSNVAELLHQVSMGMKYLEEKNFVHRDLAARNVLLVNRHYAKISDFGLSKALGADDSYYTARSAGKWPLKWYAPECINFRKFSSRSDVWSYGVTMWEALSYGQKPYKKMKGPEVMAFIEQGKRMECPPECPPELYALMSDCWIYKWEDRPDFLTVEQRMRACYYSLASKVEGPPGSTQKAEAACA
assayText: Kinase inhibition assay (33P transfer), Zap-70
Assay type: biochemical
settings: read-out: Zap-1
pIC50: −log10 of the molar value.

Bench note: what pIC50 did COc1cc(Nc2ncnc(-n3c(N[C@H](C)c4ccccc4)nc4ccccc43)n2)cc(OC)c1OC [Compound 1034] show?
< 5.04

# pIC50 lookup, item COc1cc(Nc2ncnc(-n3c(NCc4ccc(Cl)cc4)nc4ccccc43)n2)cc(OC)c1OC [Compound 944]
< 5.06

Which pIC50 is listed for Nc1nc2ccccc2n1-c1ncnc(Nc2ccc(Cl)c(Cl)c2)n1 [Compound 528] ?
5.19 to 5.97

Report pIC50 for COc1cc(Nc2ncnc(Nc3cccc(CN4CCN(C)CC4)c3)n2)cc(OC)c1OC [Compound 1047] please.
< 5.01

GET /values?readout=pIC50&item= N#Cc1ccc(Nc2ncnc(-n3c(=O)[nH]c4ccccc43)n2)cc1 [Compound 485]
< 4.86

Given COc1ccc(CCNc2ncnc(N3CCCc4cc(C)ccc43)n2)cc1OC [Compound 771] , state its recorded pIC50.
< 4.95

# get_value(readout='pIC50', item= O=c1[nH]c2ccccc2n1-c1ncnc(Nc2ccc3ccccc3c2)n1 [Compound 684] )
< 4.90

Can you look up the measured pIC50 of CN(c1cccc(Cl)c1)c1ncnc(Nc2ccc(F)c(Cl)c2)n1 [Compound 703] for me?
< 4.91

* * *

assayedTarget: c-Met (Homo sapiens, UniProt P08581)
Construct: Kinases are expressed as either kinase domains or full length constructs; made in house
Sequence (P08581 25-1390): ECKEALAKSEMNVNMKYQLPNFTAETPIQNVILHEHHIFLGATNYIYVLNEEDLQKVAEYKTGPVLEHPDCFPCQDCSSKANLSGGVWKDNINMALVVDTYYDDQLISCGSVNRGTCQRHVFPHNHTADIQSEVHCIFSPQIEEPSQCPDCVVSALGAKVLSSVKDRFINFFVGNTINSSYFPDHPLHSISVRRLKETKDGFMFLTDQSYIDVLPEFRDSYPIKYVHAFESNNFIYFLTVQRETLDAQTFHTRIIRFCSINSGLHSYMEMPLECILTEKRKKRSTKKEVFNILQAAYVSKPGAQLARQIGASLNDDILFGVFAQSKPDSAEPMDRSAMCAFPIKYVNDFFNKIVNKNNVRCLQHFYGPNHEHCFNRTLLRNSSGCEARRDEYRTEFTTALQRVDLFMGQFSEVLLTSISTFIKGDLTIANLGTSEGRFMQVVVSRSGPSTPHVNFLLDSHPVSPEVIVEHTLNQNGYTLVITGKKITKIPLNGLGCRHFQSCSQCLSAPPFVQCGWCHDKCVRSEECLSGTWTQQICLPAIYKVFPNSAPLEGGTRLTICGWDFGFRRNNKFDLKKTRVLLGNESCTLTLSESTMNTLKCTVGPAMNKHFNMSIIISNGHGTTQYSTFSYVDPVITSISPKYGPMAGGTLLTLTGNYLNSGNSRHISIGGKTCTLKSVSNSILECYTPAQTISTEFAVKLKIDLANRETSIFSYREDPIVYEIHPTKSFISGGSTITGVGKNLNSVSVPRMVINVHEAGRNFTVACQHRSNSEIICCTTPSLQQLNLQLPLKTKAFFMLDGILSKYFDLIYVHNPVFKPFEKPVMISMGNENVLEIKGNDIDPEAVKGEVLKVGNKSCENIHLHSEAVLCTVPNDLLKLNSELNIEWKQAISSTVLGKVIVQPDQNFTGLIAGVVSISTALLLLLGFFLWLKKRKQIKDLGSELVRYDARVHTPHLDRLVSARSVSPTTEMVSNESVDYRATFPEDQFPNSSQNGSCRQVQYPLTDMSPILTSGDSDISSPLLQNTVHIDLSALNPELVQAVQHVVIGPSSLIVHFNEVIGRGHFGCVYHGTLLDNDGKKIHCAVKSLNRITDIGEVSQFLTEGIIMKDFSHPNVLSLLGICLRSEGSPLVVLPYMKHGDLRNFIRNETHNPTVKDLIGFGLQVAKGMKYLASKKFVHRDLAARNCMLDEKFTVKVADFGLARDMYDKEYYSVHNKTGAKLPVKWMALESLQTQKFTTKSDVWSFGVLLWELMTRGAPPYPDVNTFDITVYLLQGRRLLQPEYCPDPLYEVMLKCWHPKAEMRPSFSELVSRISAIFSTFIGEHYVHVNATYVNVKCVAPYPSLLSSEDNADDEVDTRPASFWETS
assayText: Kinase inhibition assay (33P transfer), c-Met
Type: biochemical
settings: Table 2, class symbols A-E; read-out: Met-1
pIC50: −log10 of the molar value.
Would you mind telling me the reported pIC50 of each entry?

Give its pIC50 value. Item: COc1ccc(Nc2ncnc(N(C)c3ccc4c(cnn4Cc4ccccc4)c3)n2)cc1OC [Compound 669]
5.02 to 5.13

Fill blank: measured pIC50 of the molecule COC(=O)c1cccc(Nc2ncnc(-n3c(NCc4ccc(OC)cc4)nc4ccccc43)n2)c1 [Compound 1068] is ____.
< 5.03

For the molecule shown here, Clc1cc(Nc2ncnc(Nc3ccc4c(cnn4Cc4ccccc4)c3)n2)cc(Cl)c1Cl [Compound 872] , give the reported pIC50.
5.32 to 6.09

Query: pIC50; subject: COc1cc(Nc2ncnc(-c3cccnc3Nc3cccc4c3CCCC4)n2)cc(OC)c1OC [Compound 841]
< 5.03

Any idea what pIC50 was measured for COC(=O)c1ccc(-c2cc(Nc3ncnc(Nc4cccc5ncccc45)n3)[nH]n2)cc1 [Compound 878] ?
4.99 to 5.10

For COc1cc(Nc2ncnc(-c3cccnc3N[C@@H](C)c3ccccc3)n2)cc(OC)c1OC [Compound 1111] , what is its reported pIC50?
< 5.01

# input molecule: COc1ccc(Nc2ncnc(N(C)CCc3ccccn3)n2)cc1OC [Compound 869] ; wanted: its pIC50
4.91 to 5.02

Param item = NC(=O)Cc1cccc(Nc2ncnc(-n3c(NCc4ccccc4)nc4ccccc43)n2)c1 [Compound 967] ; retrieve measured pIC50.
5.11 to 5.27

Endpoint output: pIC50 of Fc1ccc(Nc2ncnc(Nc3ccc4c(cnn4Cc4ccccc4)c3)n2)cc1F [Compound 902] . Value?
5.25 to 6.03

Field request: pIC50 | item: CNC(=O)c1cccc(Nc2ncnc(Nc3cc(-c4ccco4)[nH]n3)n2)c1 [Compound 826]
5.20 to 5.97

What pIC50 value was documented for this molecule, COc1cc(Nc2ncnc(-c3cccnc3Nc3cccc(C(F)(F)F)c3)n2)cc(OC)c1OC [Compound 836] ?
< 5.04

Item O=C(O)Cc1cccc(Nc2ncnc(-c3cccnc3NCc3ccccc3)n2)c1 [Compound 1099] has what recorded pIC50?
5.24 to 6.01

Reported pIC50, molecule COc1cc(Nc2ncnc(N3CCCc4c(Cl)cccc43)n2)cc(OC)c1OC [Compound 643] : ____
5.25 to 6.03

For CNS(=O)(=O)Cc1ccc(Nc2ncnc(Nc3cc(-c4ccco4)[nH]n3)n2)cc1 [Compound 888] , what is its reported pIC50?
> 6.03

Consider the molecule shown here: COc1ccc(Nc2ncnc(N(C)CC(O)c3ccccc3)n2)cc1OC (centres unmarked) [Compound 868] What is its recorded pIC50?
< 4.93

Name the recorded pIC50 for COc1cc(Nc2ncnc(-c3cccnc3NC(C)C)n2)ccc1NC(=O)CCCN1CCNCC1 [Compound 1096] .
5.05 to 5.16

Endpoint output: pIC50 of CN(c1cccc(Cl)c1)c1ncnc(Nc2cc(Cl)c(Cl)c(Cl)c2)n1 [Compound 804] . Value?
< 4.96

* * *

Assign pIC50 to each entry below.
assayedTarget: Kdr (Homo sapiens, UniProt P35968)
Construct: Kinases are expressed as either kinase domains or full length constructs; made in house
Sequence (P35968 20-1356, species assumed): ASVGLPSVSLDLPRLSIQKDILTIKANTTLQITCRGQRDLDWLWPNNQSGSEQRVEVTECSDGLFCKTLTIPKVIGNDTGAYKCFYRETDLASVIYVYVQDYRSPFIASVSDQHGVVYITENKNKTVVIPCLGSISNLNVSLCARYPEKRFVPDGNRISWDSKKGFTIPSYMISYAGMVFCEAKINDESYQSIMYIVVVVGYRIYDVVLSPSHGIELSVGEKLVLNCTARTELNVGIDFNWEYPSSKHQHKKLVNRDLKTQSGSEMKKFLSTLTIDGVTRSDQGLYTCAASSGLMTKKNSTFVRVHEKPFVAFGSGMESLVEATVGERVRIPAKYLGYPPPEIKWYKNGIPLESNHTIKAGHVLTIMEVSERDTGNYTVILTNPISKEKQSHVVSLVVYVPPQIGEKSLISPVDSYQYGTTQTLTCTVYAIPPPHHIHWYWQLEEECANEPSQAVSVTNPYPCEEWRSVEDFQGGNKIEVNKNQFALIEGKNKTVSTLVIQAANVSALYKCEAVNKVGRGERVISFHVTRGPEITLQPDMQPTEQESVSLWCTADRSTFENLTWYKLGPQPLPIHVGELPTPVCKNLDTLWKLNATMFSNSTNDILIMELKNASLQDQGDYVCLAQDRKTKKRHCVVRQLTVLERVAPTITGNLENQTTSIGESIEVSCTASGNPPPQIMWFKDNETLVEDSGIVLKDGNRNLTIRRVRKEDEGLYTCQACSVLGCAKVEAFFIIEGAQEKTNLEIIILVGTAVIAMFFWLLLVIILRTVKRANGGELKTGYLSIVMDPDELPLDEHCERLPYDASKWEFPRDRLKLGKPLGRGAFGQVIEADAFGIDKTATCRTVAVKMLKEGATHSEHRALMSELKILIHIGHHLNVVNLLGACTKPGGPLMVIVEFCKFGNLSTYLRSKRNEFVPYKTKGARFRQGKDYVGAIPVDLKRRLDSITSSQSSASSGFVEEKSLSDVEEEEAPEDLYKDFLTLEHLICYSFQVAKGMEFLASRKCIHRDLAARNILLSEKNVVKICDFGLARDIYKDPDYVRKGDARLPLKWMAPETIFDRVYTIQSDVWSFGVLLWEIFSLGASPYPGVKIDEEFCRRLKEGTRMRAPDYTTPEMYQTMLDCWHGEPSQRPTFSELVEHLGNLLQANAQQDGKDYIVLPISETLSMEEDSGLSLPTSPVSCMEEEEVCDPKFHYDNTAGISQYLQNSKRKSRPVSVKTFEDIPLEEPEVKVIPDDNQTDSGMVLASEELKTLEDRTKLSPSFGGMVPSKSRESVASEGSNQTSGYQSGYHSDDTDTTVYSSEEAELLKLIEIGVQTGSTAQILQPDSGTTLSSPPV
assayText: Kinase inhibition assay (33P transfer), Kdr
Type: biochemical
settings: Table 3; read-out: KDR-1
pIC50: −log10 of the molar value.

Notebook: pull reported pIC50 for Kdr (Homo sapiens, UniProt P35968), entry Cc1cccc(Nc2ncnc(-n3cccc3)n2)c1C [Compound 281]
< 4.77

Reported pIC50 for Kdr (Homo sapiens, UniProt P35968), given COc1cc(Nc2ncnc(Nc3ncncn3)n2)cc(OC)c1OC [Compound 254] ?
< 4.90

Identify the measured pIC50 of Nc1nc2ccccc2n1-c1ncnc(Nc2ccc(-c3cnco3)cc2)n1 [Compound 438] for Kdr (Homo sapiens, UniProt P35968).
5.19 to 5.97

Notebook entry, Kdr (Homo sapiens, UniProt P35968) assay: pIC50 of COc1cc(Nc2ncnc(N3CCN(C)CC3)n2)cc(OC)c1OC [Compound 212] = ?
< 4.90

Please state recorded pIC50 (tested on Kdr (Homo sapiens, UniProt P35968)) of COC(=O)c1sccc1Nc1ncnc(Nc2cc(OC)c(OC)c(OC)c2)n1 [Compound 315]
> 6.02

What reported pIC50 corresponds to COc1cc(Nc2ncnc(-n3ccnc3)n2)cc(OC)c1OC [Compound 183] on Kdr (Homo sapiens, UniProt P35968)?
4.97 to 5.14

Which measured pIC50 belongs to COc1ccc(N(C)c2ncnc(Nc3cc(OC)c(OC)c(OC)c3)n2)cc1 [Compound 106] , tested on Kdr (Homo sapiens, UniProt P35968)?
> 6.00

Any idea what pIC50 came out for N#Cc1ccc(Nc2ncnc(-c3cccs3)n2)cc1 [Compound 356] on Kdr (Homo sapiens, UniProt P35968)?
< 4.79
